assay: qHTS RealTime-Glo MT Cell Viability Assay in HepG2 cells - 16 hour (AID 1224885); conditions: RealTime-Glo luminescence; series mostly up to 76.8 µM; further: on the % scale 0 is the no-effect control and ±100 the full control effect; nearly all actives have a fitted effect of over 50% in size
Results filed as inconclusive are left out. Calls of active or inactive are those of the source. The call rests on the fitted dose curve; in most records, active means well fitted cell-killing curve with a large enough effect in the repeat runs; inconclusive means weak or mixed curves; inactive means flat fitted curve, though single readings scatter.
Property: Potency

Past entries and their recorded results:
{"Molecule": "C#CCN1C(=O)COc2cc(F)c(N3C(=O)C4=C(CCCC4)C3=O)cc21", "Potency": "inactive"}
{"Molecule": "CC(=O)Nc1cc([As](=O)(O)O)ccc1O", "Potency": "inactive"}
{"Molecule": "CCSC(=O)N(CC)C1CCCCC1", "Potency": "inactive"}
{"Molecule": "C=CC1CC=CCC1 (stereo not drawn)", "Potency": "inactive"}
{"Molecule": "CC1=C(C(=O)Nc2ccccc2)S(=O)(=O)CCO1", "Potency": "inactive"}
{"Molecule": "O=C(Cc1ccccc1)OCc1ccccc1", "Potency": "inactive"}
{"Molecule": "C[N+](C)=CCl", "Potency": "inactive"}
{"Molecule": "NC(=O)c1cc([N+](=O)[O-])cc([N+](=O)[O-])c1", "Potency": "inactive"}
{"Molecule": "COc1ccc2c(c1OC)CN1CCc3cc4c(cc3C1C2)OCO4 (stereo not drawn)", "Potency": "inactive"}
{"Molecule": "CC(C)CC#N", "Potency": "inactive"}

Request: Tell us which Potency value is on record for O=C1CN2CCOC2(c2ccccc2Cl)c2cc(Cl)ccc2N1 (stereo not drawn)
Response: inactive

Request: Tell us which Potency value is on record for Nc1c(Br)cc([N+](=O)[O-])cc1[N+](=O)[O-]
Response: inactive

Request: Tell us which Potency value is on record for CC1CCCCC1NC(=O)Nc1ccccc1 (stereo not drawn)
Response: inactive

Request: Tell us which Potency value is on record for COc1cc2c(cc1OC)[C@@]13CCN4CC5=CCO[C@H]6CC(=O)N2[C@H]1[C@H]6[C@H]5C[C@H]43
Response: inactive

Request: Tell us which Potency value is on record for C1CCC(C2CCCCC2)CC1
Response: inactive

Request: Tell us which Potency value is on record for COc1cccc(C(=O)NN(C(=O)c2cc(C)cc(C)c2)C(C)(C)C)c1C
Response: inactive

Request: Tell us which Potency value is on record for Cc1ncc(CNC(=O)N(CCCl)N=O)c(N)n1
Response: inactive

###

target: Nuclear receptor subfamily 1 group I member 2 (Homo sapiens) (UniProt O75469); experiment: Human pregnane X receptor (PXR) small molecule agonists, qHTS assay (AID 1346982); conditions: PXR-Luc HepG2, CYP3A4 luciferase reporter, 24 h; series mostly up to 92.4 µM; further: nearly all actives have a fitted effect of over 35% in size; on activation: on the % scale 0 is the no-effect control and ±100 the full control effect
Sequence (O75469 whole entry, looked up): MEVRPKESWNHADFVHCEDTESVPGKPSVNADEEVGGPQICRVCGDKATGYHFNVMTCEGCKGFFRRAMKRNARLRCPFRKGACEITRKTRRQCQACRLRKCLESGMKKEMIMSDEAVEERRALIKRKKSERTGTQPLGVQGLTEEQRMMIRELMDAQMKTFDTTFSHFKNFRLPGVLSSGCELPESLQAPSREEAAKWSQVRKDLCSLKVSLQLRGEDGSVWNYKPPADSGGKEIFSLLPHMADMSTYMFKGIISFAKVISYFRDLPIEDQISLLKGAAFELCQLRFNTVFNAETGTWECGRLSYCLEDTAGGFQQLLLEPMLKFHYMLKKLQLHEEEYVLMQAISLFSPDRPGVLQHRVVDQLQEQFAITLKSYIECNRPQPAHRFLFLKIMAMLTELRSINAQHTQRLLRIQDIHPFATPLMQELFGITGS
Results filed as inconclusive are left out. Active and inactive are the calls of the source. Calls come from the whole dose curve; as a rule, active = well fitted activation curve with a large enough effect in the repeat runs; inconclusive = weak or mixed curves; inactive = no such curve, though single readings can be large or run the other way.
API: response.call in active, inactive

Before answering, review these 2 worked examples.
{"Molecule": "ClC(Cl)C(Cl)Cl", "Class Assignment": "active"}
{"Molecule": "COC(=O)COc1ccc(Cl)cc1Cl", "Class Assignment": "inactive"}

Request: Returns: the outcome recorded for CN1CCC(O)(c2ccc(F)cc2)C(C(=O)c2ccc(F)cc2)C1 (configuration not stated) in this assay.
Response: active

Request: Returns: the outcome recorded for CC(C)CP(=S)(S)CC(C)C in this assay.
Response: inactive

Request: Returns: the outcome recorded for CCOP(=O)(N=C1SCCS1)OCC in this assay.
Response: inactive

###

Biological target: Nuclear receptor subfamily 1 group I member 2 (Rattus norvegicus)
Test: Rat pregnane X receptor (rPXR) activation by small molecules, qHTS assay (AID 1346983); further: on the % scale 0 is the no-effect control and ±100 the full control effect; nearly all actives have a fitted effect of over 20% in size
Details: rPXR luciferase reporter cells, One-Glo luminescence, 24 h; stronger effect = higher value
From the text: National Center for Advancing Translational Sciences [NCATS] NIH Chemical Genomics Center [NCGC] U.S. Environmental Protection Agency [EPA] National Institutes of Environmental Health Sciences [NIEHS] National Toxicology Program [NTP] Assay overview: The Pregnane X receptor (PXR), a ligand activated nuclear receptor plays a critical role in the regulation of genes involved in drug metabolism and transporters. […]
Inconclusive results are not listed.
Property: max activation (%)
Reply with just the number (in %).

Past entries and their recorded results:
{"Compound": "CC(=O)Nc1cc([As](=O)(O)O)ccc1O", "max activation (%)": -4.41}
{"Compound": "O=C1CN=C(c2ccccc2)c2cc([N+](=O)[O-])ccc2N1", "max activation (%)": -2.6}
{"Compound": "O=C1c2ccccc2C(=O)c2ccccc21", "max activation (%)": 7.01}

Request: Jot down max activation (Nuclear receptor subfamily 1 group I member 2 (Rattus norvegicus)) of NC1=NC(=O)C(c2ccccc2)O1 (stereo not drawn) .
Response: -2.64

Request: Jot down max activation (Nuclear receptor subfamily 1 group I member 2 (Rattus norvegicus)) of CCOC(=O)/C=C(C)/C=C/C[C@@H](C)CCCC(C)C .
Response: -2.62

###

Test: qHTS assay for identifying genotoxic compounds that show differential cytotoxicity against isogenic chicken DT40 cell lines with known DNA damage response pathways - Rev3 mutant cell line (AID 743014); further: nearly all actives have a fitted effect of over 55% in size
Settings: chicken DT40 Rev3-/- viability, CellTiter-Glo, 40 h; series mostly up to 68.4 µM
Description: National Center for Advancing Translational Sciences [NCATS] NIH Chemical Genomics Center [NCGC] U.S. Environmental Protection Agency [EPA] National Institutes of Environmental Health Sciences [NIEHS] National Toxicology Program [NTP] U.S. Food and Drug Administration [FDA] DNA repair pathways play a critical role in cellular homeostasis by repairing DNA damage induced by endogenous processes and xenobiotics. […]
Inconclusive results are not listed. Activity calls are given as the source filed them. The call rests on the fitted dose curve; in most records, active means well fitted cell-killing curve with a large enough effect in the repeat runs; inconclusive means weak or mixed curves, or effect the other way; inactive means no such curve, though single readings can be large or run the other way.
API: response.call in T for active, F for inactive

Before answering, review these 6 worked examples.
{"Compound": "Nc1n[nH]c(N)n1", "Class Assignment": "F"}
{"Compound": "Nc1ccccc1Cl", "Class Assignment": "F"}
{"Compound": "CCCCOC(=O)c1ccccc1C(=O)O", "Class Assignment": "F"}
{"Compound": "CCC/C(=N\\OCC)C1=C(O)CC(CC(C)SCC)CC1=O (stereo unspecified)", "Class Assignment": "T"}
{"Compound": "CCCSC(=O)Cl", "Class Assignment": "F"}
{"Compound": "CCC#N", "Class Assignment": "F"}

Request: Returns: the outcome recorded for OC(c1ccccc1)(c1ccccc1)C1CCNCC1 in this assay.
Response: F

Request: Returns: the outcome recorded for CC1=C(C(=O)Nc2ccccc2)S(=O)(=O)CCO1 in this assay.
Response: T

Request: Returns: the outcome recorded for O=[N+]([O-])c1cccc2c([N+](=O)[O-])cccc12 in this assay.
Response: F

Request: Returns: the outcome recorded for O=P(O)(Oc1ccccc1)Oc1ccccc1 in this assay.
Response: F

Request: Returns: the outcome recorded for CC(C)COP(=O)(OCC(C)C)OCC(C)C in this assay.
Response: F

Request: Returns: the outcome recorded for N#CCNCC#N in this assay.
Response: F

Request: Returns: the outcome recorded for ClCC(Cl)(Cl)Cl in this assay.
Response: F

Request: Returns: the outcome recorded for COc1cccc2c1cc([N+](=O)[O-])c1c(C(=O)O)cc3c(c12)OCO3 in this assay.
Response: T

Request: Returns: the outcome recorded for COc1ccc(C(=O)N2CCCC2=O)cc1 in this assay.
Response: F

###

Target: Aryl hydrocarbon receptor (Homo sapiens)
Assay: qHTS assay to identify small molecule that activate the aryl hydrocarbon receptor (AhR) signaling pathway (AID 743085); further: nearly all actives have a fitted effect of over 15% in size;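 on activation: HG2L7.5c1 human HepG2 liver cells with stably integrated DRE-driven firefly reporter; on the % scale 0 is the no-effect control and ±100 the full control effect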
Conditions: HepG2 AhR-luc (HG2L7.5c1), luciferase, 24 h; series mostly up to 70.3 µM
Description: U.S. Tox21 Program National Center for Advancing Translational Sciences [NCATS] NIH Chemical Genomics Center [NCGC] U.S. Environmental Protection Agency [EPA] National Institutes of Environmental Health Sciences [NIEHS] National Toxicology Program [NTP] U.S. Food and Drug Administration [FDA] Tox21 Assay overview: The Aryl hydrocarbon Receptor (AhR), a member of the family of basic helix-loop-helix transcription factors, is crucial to adaptive responses to environmental changes. […]
Records with an inconclusive call do not appear. Active and inactive are the calls of the source. The call rests on the fitted dose curve; in most records, active means well fitted activation curve with a large enough effect in the repeat runs; inconclusive means weak or mixed curves; inactive means no such curve, though single readings can be large or run the other way.
API: response.call in active, inactive

Before answering, review these 8 worked examples.
{"Compound": "COc1ncc(F)c2nc(S(=O)(=O)Nc3c(F)cccc3F)nn12", "Class Assignment": "inactive"}
{"Compound": "CC1(C)C(=O)NC(=O)NC1=O", "Class Assignment": "inactive"}
{"Compound": "CN/C(=N\\[N+](=O)[O-])NCC1CCOC1 (centres undefined)", "Class Assignment": "inactive"}
{"Compound": "NC(=S)C(N)=S", "Class Assignment": "inactive"}
{"Compound": "O=C(O)c1cccc(Cl)c1", "Class Assignment": "inactive"}
{"Compound": "O=S(=O)(O)C(F)(F)C(F)(F)C(F)(F)C(F)(F)C(F)(F)C(F)(F)F", "Class Assignment": "inactive"}
{"Compound": "CCOP(=S)(OCC)Oc1nc(Cl)n(C(C)C)n1", "Class Assignment": "active"}
{"Compound": "C[C@@H]1CN(C2CCC(C#N)(c3ccc(F)cc3)CC2)CC[C@]1(C(=O)O)c1ccccc1 (some centres undefined)", "Class Assignment": "inactive"}

Request: Returns: the outcome recorded for O=C(O)c1ccc2[nH]cc(CCCCN3CC=C(c4ccccc4)CC3)c2c1 in this assay.
Response: inactive

Request: Returns: the outcome recorded for Clc1cccc(N2CCNCC2)c1 in this assay.
Response: inactive
